Target: human CYP11B1 (Homo sapiens, UniProt P15538)
Sequence (P15538 25-503): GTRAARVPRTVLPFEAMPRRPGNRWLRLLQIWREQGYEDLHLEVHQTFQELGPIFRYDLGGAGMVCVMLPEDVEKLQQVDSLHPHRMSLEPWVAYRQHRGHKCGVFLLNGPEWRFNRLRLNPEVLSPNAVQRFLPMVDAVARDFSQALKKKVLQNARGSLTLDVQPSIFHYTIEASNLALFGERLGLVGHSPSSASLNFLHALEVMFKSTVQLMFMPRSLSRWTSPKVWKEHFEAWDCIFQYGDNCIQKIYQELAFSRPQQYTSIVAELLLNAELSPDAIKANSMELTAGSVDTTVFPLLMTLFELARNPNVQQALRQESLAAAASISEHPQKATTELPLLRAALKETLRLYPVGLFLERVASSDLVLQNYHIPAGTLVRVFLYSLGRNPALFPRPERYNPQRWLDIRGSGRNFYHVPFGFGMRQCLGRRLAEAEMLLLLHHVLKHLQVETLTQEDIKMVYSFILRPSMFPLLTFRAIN
Test: G-402 cellular enzyme assay, human CYP11B1 (cortisol release, HTRF)
Conditions: G-402 cells expressing human CYP11B1; 1 μM Deoxycortisol
Text: Herein we identified the use of the G-402 cell line as a host cell to ectopically express (transiently or stably) enzymes of the CYP11 family. […] Importantly the identified cell line G-402 expresses co-factors (adrenodoxin and adrenodoxin reductase) important for the activity of the CYP11 family and no relevant enzyme activity of the CYP11 family (in comparison to H295R cells) was detected in these cells. […]
pEC50: −log10 of the molar value. Structures can show the parent of a compound that is named as a salt.
recorded_metric: pEC50

Past entries and their recorded results:
* Cc1cc(F)cc(C)c1C(=O)NCc1cncc(-c2ccc3c(c2)CCC(=O)N3C)c1 [Example 93] | 6.21
* CCN(C(C)c1cncc(-c2ccc3c(c2)CCC(=O)N3C)c1)S(=O)(=O)CC (racemic) [Example 187] | 6.15
* CCC(=O)N1CC(Oc2cncc(-c3ccc4c(c3)CCC(=O)N4C)c2)C1 [Example 129] | 6.21

P = CN1C(=O)CCc2cc(-c3cncc(CNC(=O)c4cccc(Cl)n4)c3)ccc21 [Example 114]
Q = CN(Cc1cncc(-c2cc(Cl)c3c(c2)CCC(=O)N3)c1)C(=O)c1ncccc1Cl [Example 216]
R = CCS(=O)(=O)Nc1cncc(-c2ccc3c(c2)CCC(=O)N3C)c1 [Example 1]
S = CCC(=O)N1CCC(Oc2cncc(-c3ccc4c(c3)CCC(=O)N4C)c2)CC1 [Example 88]
T = CN1C(=O)CCc2cc(-c3cncc(O[C@@H]4CCNC4)c3)ccc21 [Example 68, hydrochloride]
Order the entries by their reported pEC50, beginning at the minimum. Respond with the label ranking, as requested.
T, R, Q, P, S
(T: 4.47, R: 5.43, Q: 6.06, P: 6.85, S: 7.89)

P = CC(N)c1cncc(-c2ccc3c(c2)CCC(=O)N3C)c1Cl (single isomer, unassigned) [Example 250, hydrochloride]
Q = CN1C(=O)CCc2cc(-c3cncc(CNS(=O)(=O)C(F)(F)F)c3)ccc21 [Example 163]
Please indicate which has the smaller reported pEC50: P , or Q . Please indicate the selected item by its label.
Q

A = CN1C(=O)CCc2cc(-c3cncc(CNS(=O)(=O)C4CC4)c3)ccc21 [Example 155]
B = CN1C(=O)CCc2cc(-c3cncc(CNC(=O)c4cncnc4)c3)ccc21 [Example 86]
C = CN1C(=O)CCc2cc(-c3cncc(O[C@H]4CCCN(C(=O)OC(C)(C)C)C4)c3)ccc21 [Example 49]
Rank descending by pEC50. Respond with the label ranking, as requested.
B, A, C
(B: 6.97, A: 6.23, C: 6.00)

I = Cc1c(-c2cc3c(cc2F)N(C)C(=O)CC3)cncc1C(C)NC(=O)c1ncccc1Cl (single isomer, unassigned) [Example 258]
II = Cc1cccc(C(=O)NCc2cncc(-c3ccc4c(c3)CCC(=O)N4C)c2)n1 [Example 117]
III = CCS(=O)(=O)NCc1cncc(-c2cc(Cl)c3c(c2)CCC(=O)N3)c1 [Example 203]
Order the entries by their reported pEC50, beginning at the minimum. Respond with the label ranking, as requested.
III, I, II
(III: 5.30, I: 6.54, II: 6.92)
